Target: Mu-type opioid receptor (Homo sapiens, UniProt P35372)
Sequence (P35372 whole entry): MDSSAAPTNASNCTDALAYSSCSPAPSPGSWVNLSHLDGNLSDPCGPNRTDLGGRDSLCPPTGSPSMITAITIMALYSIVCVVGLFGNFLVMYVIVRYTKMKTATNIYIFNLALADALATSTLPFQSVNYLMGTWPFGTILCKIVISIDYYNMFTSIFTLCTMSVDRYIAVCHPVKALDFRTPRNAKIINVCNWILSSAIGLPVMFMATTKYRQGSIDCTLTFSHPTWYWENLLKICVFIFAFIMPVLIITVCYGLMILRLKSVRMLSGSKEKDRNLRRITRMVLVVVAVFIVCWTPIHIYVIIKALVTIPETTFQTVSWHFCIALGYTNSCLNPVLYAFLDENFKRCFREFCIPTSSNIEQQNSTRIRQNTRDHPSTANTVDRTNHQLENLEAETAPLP
pKi: −log10 of the molar value.
# pKi >= 6 gives 1.0, anything below gives 0.0

// query // inclusive: pKi at least 6? input: C=CCN1C[C@H](C)N([C@H](c2ccc(C(=O)N(CC)CC)cc2)c2cccc(O)c2)C[C@H]1C
// result 1.0

* * *

# pKi listing for each entry below
Biological target: Beta-3 adrenergic receptor (Homo sapiens)
Sequence (P13945 whole entry): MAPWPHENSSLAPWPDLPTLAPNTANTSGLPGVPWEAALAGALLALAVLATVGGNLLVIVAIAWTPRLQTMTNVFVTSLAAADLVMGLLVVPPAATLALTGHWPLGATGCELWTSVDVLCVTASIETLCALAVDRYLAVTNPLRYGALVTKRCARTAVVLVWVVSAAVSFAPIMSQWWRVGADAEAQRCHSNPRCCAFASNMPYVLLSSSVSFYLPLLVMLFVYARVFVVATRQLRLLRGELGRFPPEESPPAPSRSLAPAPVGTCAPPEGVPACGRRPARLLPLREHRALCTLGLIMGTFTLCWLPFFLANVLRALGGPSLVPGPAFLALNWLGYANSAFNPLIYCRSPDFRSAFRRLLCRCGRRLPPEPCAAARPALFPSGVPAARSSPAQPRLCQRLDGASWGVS
Where a name gives a salt, the structure may show the parent alone.
The value called pKi is obtained by taking minus log10 of the concentration in mol/L.

Sample answers from the record:
1. Cc1c(OCc2cccc(-c3ccc(C(=O)O)cc3)c2)cc2c(c1C)C(=O)C(C1CCCC1)C2 (stereo not given)
5.30
2. CCCCCNC(=N)N/N=C/c1c[nH]c2ccc(OC)cc12 [TEGASEROD MALEATE]
5.31
3. CC(C)NCC(O)c1ccc(N)c(C#N)c1 (stereo not given) [CIMATEROL]
5.73
4. C[C@@H](NCCc1ccc(O)cc1)[C@@H](O)c1ccc(O)cc1 (relative stereo)
5.43
5. CCc1ccc(OCc2ccccc2C(=O)Nc2ccc3nc(C)cc(N)c3c2)cc1
5.20

Attention now turns to another entry.
// query Can you share its pKi? I mean this compound: Cc1c(P(=S)(c2ccccc2)c2ccccc2)n2ccccc2[n+]1C/C=C/c1ccccc1
// result 5.69
